- measured on: CRTH2 (Homo sapiens (Human))
- Sequence (Q9Y5Y4 whole entry): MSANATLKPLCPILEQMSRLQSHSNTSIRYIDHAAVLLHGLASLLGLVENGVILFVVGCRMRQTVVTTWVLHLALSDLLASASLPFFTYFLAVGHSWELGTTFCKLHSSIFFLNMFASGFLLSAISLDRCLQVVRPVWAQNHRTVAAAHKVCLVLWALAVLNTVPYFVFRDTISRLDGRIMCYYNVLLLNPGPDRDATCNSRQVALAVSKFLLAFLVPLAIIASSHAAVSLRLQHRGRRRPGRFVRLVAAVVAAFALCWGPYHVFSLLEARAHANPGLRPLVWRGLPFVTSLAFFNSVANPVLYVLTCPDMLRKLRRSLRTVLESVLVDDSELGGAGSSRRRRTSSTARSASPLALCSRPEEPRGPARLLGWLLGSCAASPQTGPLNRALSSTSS
- assay: CRTH2 receptor binding inhibitory activity ([3H]-PGD2 displacement, membranes of CRTH2-expressing K562 cell)
- condition description: CRTH2 receptor binding, [3H]-PGD2 displacement, membrane of CRTH2-expressing K562 cell; categorized AAAA/AAA; read-out: Ki
measured metric: Ki

Reference set, count: 5
CC(C)Oc1ccc(S(=O)(=O)N2C[C@@H](C)[C@@H](n3nc(CC(=O)O)c4ccc(Cl)cc43)C2)cn1	< 0.1 µM
CC(C)Oc1ccc(S(=O)(=O)N2C[C@H](n3nc(CC(=O)O)c4ccc(F)cc43)C[C@H]2C(N)=O)cc1	0.1 to 5 µM
CCOc1ccc(S(=O)(=O)N2C[C@@H](C)[C@@H](n3nc(CC(=O)O)c4ccccc43)C2)c(F)c1	< 0.1 µM
CC(C)Oc1ccc(S(=O)(=O)N2C[C@@H](C)[C@@H](n3nc(CC(=O)O)c4ccc(C(F)(F)F)cc43)C2)cc1	< 0.1 µM
CC[C@@H]1CN(S(=O)(=O)c2ccc(OC(C)C)cc2)C[C@@H]1n1nc(CC(=O)O)c2ccc(F)cc21	< 0.1 µM

Dear reader, for each entry below, please note its Ki.
1. CC(C)Oc1ccc(S(=O)(=O)N2C[C@H](n3nc(CC(=O)O)c4ccc(F)cc43)C[C@@H]2c2ccncc2)cc1
2. CCOc1ccc(S(=O)(=O)N2C[C@@H](C)[C@@H](n3nc(CC(=O)O)c4ccc(C5=CCCCC5)cc43)C2)cn1
3. CCOc1ccc(S(=O)(=O)N2C[C@@H](C)[C@@H](n3nc(CC(=O)O)c4cc(F)ccc43)C2)cc1
4. Cc1ccc2c(CC(=O)O)nn([C@H]3CN(S(=O)(=O)c4ccc(OC(C)C)cc4)C[C@]3(C)O)c2c1
5. CCOc1ccc(S(=O)(=O)N2C[C@@H](C)[C@@H](n3nc(CC(=O)O)c4ccccc43)C2)c(CF)c1
6. CC(C)Oc1ccc(S(=O)(=O)N2C[C@@H](C)[C@@H](n3nc(CC(=O)O)c4cc(F)ccc43)C2)cc1
7. Cc1ccc2c(CC(=O)O)nn([C@H]3CN(S(=O)(=O)c4ccc(OC(C)C)cc4)C[C@H]3C)c2c1

["0.1 to 5 µM", "< 0.1 µM", "< 0.1 µM", "< 0.1 µM", "< 0.1 µM", "0.1 to 5 µM", "< 0.1 µM"]

Dear reader, for each entry below, please note its Ki.
1. CCOc1ccc(S(=O)(=O)N2C[C@@H](C)[C@@H](n3nc(CC(=O)O)c4ccc(C5CCCCC5)cc43)C2)cn1
2. CC(C)Oc1ccc(S(=O)(=O)N2C[C@H](n3nc(CC(=O)O)c4ccc(F)cc43)CC2(C)C)cc1

1: < 0.1 µM; 2: < 0.1 µM

Where do the numbers come from? From patent US9725442B2.
